target: hGLP-1R (Homo sapiens, UniProt P43220); assay: cell-based or functional assay
Sequence (P43220 24-463): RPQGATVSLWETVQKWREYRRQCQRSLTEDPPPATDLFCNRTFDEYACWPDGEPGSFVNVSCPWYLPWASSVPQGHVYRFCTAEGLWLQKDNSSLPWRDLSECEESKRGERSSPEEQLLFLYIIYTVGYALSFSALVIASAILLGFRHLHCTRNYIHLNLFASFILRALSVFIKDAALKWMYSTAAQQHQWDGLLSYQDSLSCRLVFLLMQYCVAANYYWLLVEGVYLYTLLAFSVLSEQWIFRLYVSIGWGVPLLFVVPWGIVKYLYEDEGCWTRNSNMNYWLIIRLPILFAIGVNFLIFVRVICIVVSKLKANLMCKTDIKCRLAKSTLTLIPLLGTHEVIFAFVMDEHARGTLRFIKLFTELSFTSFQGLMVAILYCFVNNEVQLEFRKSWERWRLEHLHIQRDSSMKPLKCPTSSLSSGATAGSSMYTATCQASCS
Would you mind sorting the entries by cAMP Rel EC50, nM (1% HSA) according to these classes? low band (below 300 nM), middle band (300 nM to below 600 nM), high band (600 nM or more)

binder: YXQGTFTSDFSQXLDKKAQXAFIEYLLEAGPSSXAPPPSGT (synthetic construct; SITE 2: note = 2-Aminoisobutyric Acid; SITE 13: note = alpha-methyl-leucine; SITE 17: note = Lysine is chemically modified through conjugation of the epsilon-amino group of the Lysine side chain with (2-[2-(2-Amino-ethoxy)-ethoxy]-acetyl)-(gamma-Glu)-CO-(CH2) 16-CO2H; SITE 20: n) [Example 779]
qualitativeLabel: low band

binder: YXQGTFTSDXSQXLDKKAQXAFIEYLLAGGPSSGAPPPSGSEE (acylated lysine (γGlu)2-C18 diacid; non-natural residues; C-terminal amide; synthetic construct; SITE 2: note = 2-Aminoisobutyric Acid; SITE 10: note = 3-(4-Pyridyl)-L-alanine; SITE 13: note = alpha-methyl-leucine; SITE 17: note = Lysine is chemically modified through conjugation of the epsilon-amino group of the Lysine side chain with (gamma-Glu)2-CO-(CH2)16-CO2H; SITE 20:) [Example 1036]
qualitativeLabel: high band

binder: YXQGTFTSDFSXXLDKKAQXAFIEYLLEGGPSSXAPPPGGS (not fully specified; synthetic construct; SITE 2: note = 2-Aminoisobutyric Acid; SITE 12: note = L-ornithine; SITE 13: note = alpha-methyl-leucine; SITE 17: note = Lysine is chemically modified through conjugation of the epsilon-amino group of the Lysine side chain with (gamma-Glu)2-CO-(CH2)16-CO2H; SITE 20: note = 2-Am) [Example 770]
qualitativeLabel: low band

Continue with the binder presented below.
**Query** Which class is correct for the following binder? YXQGTFTSDFSXXLDKKAQXAFIEYLLEXGESSGAPPPSGT (synthetic construct; SITE 2: note = 2-Aminoisobutyric Acid; SITE 12: note = L-ornithine; SITE 13: note = alpha-methyl-leucine; SITE 17: note = Lysine is chemically modified through conjugation of the epsilon-amino group of the Lysine side chain with (2-[2-(2-Amino-ethoxy)-ethoxy]-acetyl)2-(gamma-Glu)) [Example 180]
**Result** high band
